Reference source: patent US11691962B2

experiment: Plasma protein binding by equilibrium dialysis
Format: in vitro ADME
experimental.setup: both sexes, pH 7.4, pooled human plasma, 4 hours at 37° C., read-out: PPB (%)
observation.type: fraction unbound at 4 h, 10 μM

CC[C@@H](NC(=O)N1C(=O)[C@H](Cc2ccnc(N)c2)[C@H]1C(=O)N(C)c1ccnn1C)C1CCCCC1 : 0.1 to 0.5
CC[C@@H](NC(=O)N1C(=O)[C@H](Cc2ccnc(N)c2)[C@H]1C(=O)N(C)c1nccn1C)C1CCCCC1 : 0.1 to 0.5

Query :: Dear colleague, I am looking for the recorded fraction unbound at 4 h, 10 μM of the following molecule: "CC[C@@H](NC(=O)N1C(=O)[C@H](Cc2cc(C)nc(NC)c2)[C@H]1C(=O)N(C)c1ccnn1C)C1CCCCC1"
Result :: 0.1 to 0.5

Query :: Next entry: "CC[C@@H](NC(=O)N1C(=O)[C@H](Cc2cc(C)nc(N)c2)[C@H]1C(=O)N(C)c1ccn(C)n1)c1cccc(C)c1"
Result :: 0.1 to 0.5

Query :: Next entry: "CC[C@@H](NC(=O)N1C(=O)[C@H](Cc2cc(C)nc(NC)c2)[C@H]1C(=O)N(C)c1nccn1C)c1ccccc1"
Result :: 0.1 to 0.5

Query :: Next entry: "CN(C(=O)[C@@H]1[C@@H](Cc2ccnc(N)c2)C(=O)N1C(=O)N[C@@H](C1CCCCC1)C(F)(F)F)c1ccn(C)n1"
Result :: 0.05 to 0.09
